tgt: HLA-B*08:01
assay-details: IEDB peptide-MHC binding, purified MHC/direct/fluorescence; filed as Kd, often an IC50 or EC50 that approximates it; bounds were set here for any values at or beyond the usual limits of such assays
test-parameters: source organism: Rickettsia conorii
pKd: −log10 of the molar value.
endpoint-label: pKd

> print(dat)
   record.sequence  endpoint.label  assay.value
1        RTGDIGCFK             pKd       ≤ 4.70

---

tgt: HLA-A*01:01
assay-details: IEDB peptide-MHC binding, purified MHC/direct/fluorescence; filed as Kd, often an IC50 or EC50 that approximates it; bounds were set here for any values at or beyond the usual limits of such assays
test-parameters: source organism: La Crosse virus
endpoint-label: Kd

> print(dat)
   record.sequence  assay.value
1        YRKPSGGVF      ≥ 20 µM

---

tgt: HLA-A*68:01
assay-details: IEDB peptide-MHC binding, purified MHC/competitive/radioactivity; filed as Kd, often an IC50 or EC50 that approximates it; bounds were set here for any values at or beyond the usual limits of such assays
test-parameters: source organism: SARS coronavirus Tor2
pKd: −log10 of the molar value.
endpoint-label: pKd

> print(dat)
    record.sequence          tgt  endpoint.label  cmp  assay.value
 1       RLLACLCKHK  HLA-A*68:01             pKd    =         5.07
 2        LTRNPAWRK  HLA-A*68:01             pKd    =         5.85
 3        VVYRGTTTY  HLA-A*68:01             pKd    =         5.06
 4        AIMQVFFGY  HLA-A*68:01             pKd    =         6.72
 5        QLQLLMPLK  HLA-A*68:01             pKd    =         4.87
 6       VSTCFKLMLK  HLA-A*68:01             pKd    =         6.33
 7       TLEEAKTALK  HLA-A*68:01             pKd    ≤         5.00
 8       TQVYIAVNDK  HLA-A*68:01             pKd    =         5.88
 9        LLSGHNLAK  HLA-A*68:01             pKd    =         5.18
10        VTYTEIEPK  HLA-A*68:01             pKd    =         6.83
11        YLCGFIKQK  HLA-A*68:01             pKd    =         5.22
12        KSAGFPFNK  HLA-A*68:01             pKd    =         7.16
13        TLAILTALR  HLA-A*68:01             pKd    =         6.93
14        SFNHVLKRK  HLA-A*68:01             pKd    ≤         4.61
15       RFNVAITRAK  HLA-A*68:01             pKd    =         6.77
16        IINNAVYTK  HLA-A*68:01             pKd    =         6.32
17        GTSWFITQR  HLA-A*68:01             pKd    =         7.89
18        SSSLTSLLK  HLA-A*68:01             pKd    =         5.03
19       VQIGEYTFEK  HLA-A*68:01             pKd    =         6.46
20        HQNSKKTTK  HLA-A*68:01             pKd    ≤         4.11
21        VQSKMSDVK  HLA-A*68:01             pKd    ≤         4.27

---

tgt: HLA-A*01:01
assay-details: IEDB peptide-MHC binding, purified MHC/direct/fluorescence; filed as Kd, often an IC50 or EC50 that approximates it; bounds were set here for any values at or beyond the usual limits of such assays
test-parameters: source organism: Homo sapiens
endpoint-label: Kd (nM)

> print(dat)
   record.sequence  assay.value
1        KSDPIMLLK          345
2        CSDDGFWSK          423

---

tgt: HLA-B*35:01
assay-details: IEDB peptide-MHC binding, purified MHC/competitive/radioactivity; filed as Kd, often an IC50 or EC50 that approximates it; bounds were set here for any values at or beyond the usual limits of such assays
test-parameters: source organism: Mammarenavirus guanaritoense
pKd: −log10 of the molar value.
endpoint-label: pKd

> print(dat)
   record.sequence  endpoint.label  assay.value
1        TPNNFSSIV             pKd         5.74

---

tgt: HLA-B*35:01
assay-details: IEDB peptide-MHC binding, purified MHC/competitive/radioactivity; filed as Kd, often an IC50 or EC50 that approximates it; bounds were set here for any values at or beyond the usual limits of such assays
test-parameters: source organism: Mammarenavirus lassaense
pKd: −log10 of the molar value.
endpoint-label: pKd

> print(dat)
   record.sequence          tgt  assay.value
1        CPNCYDSVM  HLA-B*35:01         8.10

---

tgt: HLA-A*68:02
assay-details: IEDB peptide-MHC binding, purified MHC/direct/fluorescence; filed as Kd, often an IC50 or EC50 that approximates it; bounds were set here for any values at or beyond the usual limits of such assays
test-parameters: source organism: Ebola virus Yambio0403
pKd: −log10 of the molar value.
endpoint-label: pKd

> print(dat)
   record.sequence  assay.value
1        FRYEFTAPF       ≤ 4.70

---

tgt: HLA-A*26:02
assay-details: IEDB peptide-MHC binding, purified MHC/competitive/fluorescence; filed as Kd, often an IC50 or EC50 that approximates it; bounds were set here for any values at or beyond the usual limits of such assays
test-parameters: source organism: Taterapox virus
endpoint-label: Kd (µM)

> print(dat)
   record.sequence  assay.value
1        SYVFNFHKY         4.09

---

tgt: HLA-B*27:05
assay-details: IEDB peptide-MHC binding, purified MHC/direct/fluorescence; filed as Kd, often an IC50 or EC50 that approximates it; bounds were set here for any values at or beyond the usual limits of such assays
test-parameters: source organism: Influenza A virus (A/Swine/Italy/25823/94(H3N2))
pKd: −log10 of the molar value.
endpoint-label: pKd

> print(dat)
   record.sequence          tgt  assay.value
1        SFSFGGFTF  HLA-B*27:05       ≤ 4.70

---

tgt: HLA-B*45:01
assay-details: IEDB peptide-MHC binding, purified MHC/competitive/radioactivity; filed as Kd, often an IC50 or EC50 that approximates it; bounds were set here for any values at or beyond the usual limits of such assays
test-parameters: source organism: Mammarenavirus whitewaterense
endpoint-label: Kd

> print(dat)
   record.sequence  assay.value
1        LEITDVTTL    ≥ 77.7 µM

---

tgt: HLA-A*29:02
assay-details: IEDB peptide-MHC binding, purified MHC/competitive/radioactivity; filed as Kd, often an IC50 or EC50 that approximates it; bounds were set here for any values at or beyond the usual limits of such assays
test-parameters: source organism: Mammarenavirus lassaense
endpoint-label: Kd

> print(dat)
   record.sequence  assay.value
1       HDLMMGYAWI    ≥ 63.9 µM

---

tgt: HLA-A*02:01
assay-details: IEDB peptide-MHC binding, purified MHC/competitive/fluorescence; filed as Kd, often an IC50 or EC50 that approximates it; bounds were set here for any values at or beyond the usual limits of such assays
test-parameters: source organism: Entamoeba histolytica
endpoint-label: Kd

> print(dat)
   record.sequence  assay.value
1        RASHFRKLF      ≥ 20 µM

---

tgt: HLA-B*35:01
assay-details: IEDB peptide-MHC binding, purified MHC/competitive/radioactivity; filed as Kd, often an IC50 or EC50 that approximates it; bounds were set here for any values at or beyond the usual limits of such assays
test-parameters: source organism: Vaccinia virus WR
endpoint-label: Kd

> print(dat)
    record.sequence  assay.value
 1        CPKIFNNNY      0.16 µM
 2       LPSLEYGANY    0.0151 µM
 3       DPEYFDNERI    ≥ 34.8 µM
 4       SPMVIATTDM    0.0666 µM
 5       MPNESRVKQW      2.29 µM
 6       RPSIGNVFKA    ≥ 69.9 µM
 7       SPMLYQLLEA     0.143 µM
 8       VTNLISETLK    ≥ 69.9 µM
 9       HPFIYVIRHV      7.04 µM
10        TPNYMKLLV   0.00841 µM
11       ATLMKTSCSK    ≥ 69.9 µM
12       VPDADPPIPY     0.142 µM
13       NPKASTISWM      7.66 µM
14        LLFASMGFK    ≥ 41.6 µM
15       VPVLEKKVCA      7.68 µM
16       RPDTRHLRVL    ≥ 69.9 µM
